- System: LG0703-F948-PDC complex spheroid viability;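 note: spheroids exposed to agents for seven days before readout; 100% = DMSO vehicle control wells as normalization base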
- ASSAY INFO: Anticancer human tumor LG0703-F948-PDC patient-derived lung adenocarcinoma cell line growth inhibition
- CONDITION LABEL: second compound 3.16 µM; first compound 0.949 µM; stronger effect = lower value
READOUT KIND: viability, T/C (%)
Give your result in % as a bare value.

Worked examples, 5 compounds total:
O=C(C=Cc1cccc(S(=O)(=O)Nc2ccccc2)c1)NO + NC1CC1c1ccc(-c2cccc(O)c2)cc1: 1.69
O=C(C=Cc1cccc(S(=O)(=O)Nc2ccccc2)c1)NO + NC1CCC(NC2CC2c2ccccc2)CC1: 0.32
Nc1ccccc1NC(=O)c1ccc(CNC(=O)OCc2cccnc2)cc1 + NC1CC1c1ccc(-c2cccc(O)c2)cc1: 0.23
COc1cc(C2c3cc4c(cc3C(OC3OC5COC(C)OC5C(O)C3O)C3COC(=O)C23)OCO4)cc(OC)c1O (stereo unspecified) + NC1CC1c1ccc(-c2cccc(O)c2)cc1: 88.1
COc1cc(C2c3cc4c(cc3C(OC3OC5COC(C)OC5C(O)C3O)C3COC(=O)C23)OCO4)cc(OC)c1O (stereo unspecified) + NC1CCC(NC2CC2c2ccccc2)CC1: 98.5

Let us examine a further case.
Give the measured viability, T/C of Nc1ccccc1NC(=O)c1ccc(CNC(=O)OCc2cccnc2)cc1 + NC1CCC(NC2CC2c2ccccc2)CC1 .
0.24
